Origin of values: the RNAGym collection of RNA variant scans (doi:10.1093/molbev/msab373)

This listing pairs variants with measured reverse-splicing fitness.
B1: Azoarcus group I ribozyme (parent)
chain: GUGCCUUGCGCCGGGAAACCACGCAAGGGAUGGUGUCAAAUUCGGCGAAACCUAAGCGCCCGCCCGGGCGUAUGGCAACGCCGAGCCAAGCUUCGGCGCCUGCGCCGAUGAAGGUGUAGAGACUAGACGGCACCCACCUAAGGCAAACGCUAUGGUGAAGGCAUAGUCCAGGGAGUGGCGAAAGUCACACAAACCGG

# Variants of: B1
# Measurement Notes: reverse-splicing fitness (ratio to wild type); higher = more active; in vitro selection; Mg2+ level not given
Number only, please.

Field: example entries. Status: answers known.
Lookup: Value lookup for reverse-splicing fitness; key = C82U A111C A145G C150U C169U U176G
Found: 0.00645

Lookup: Please report the recorded reverse-splicing fitness for A111C C150U C169U .
Found: 0.0632

Lookup: Fill in: reverse-splicing fitness of C82A A111G A120U A145C C150U C169U U176A is ___
Found: 0.0026

Lookup: Reported reverse-splicing fitness, variant A111U A120U C150U U176A : ____
Found: 0.125

Lookup: I am curious: what reverse-splicing fitness value has been reported for C82G A111C A120C A145U C150G C169U U176C ?
Found: 0.0121

Lookup: Entry under review: C82U A111C C150G C169A U176G . Reported reverse-splicing fitness?
Found: 0.00672

Further cases:
Lookup: Record request: reverse-splicing fitness value, item A111G A120C A145U C150G U176G
Found: 0.00444

Lookup: // returns reported reverse-splicing fitness for input C82A A111C A120C A145U C150A C169U U176C
Found: 0.0143

Lookup: Form field: reported reverse-splicing fitness of C82A A111C A120G A145G C150U C169A U176G
Found: 0.00613

Lookup: Name the reported reverse-splicing fitness value associated with the variant C82A A111U A120U A145C C150G C169G U176A
Found: 0.00351
